# maps each entry to its half-life
assay: Half life in mouse liver microsomes; assay type: ADME, microsome
Numeric answer only, unit min assumed.

COc1ccc(CN(CC(=O)N2CCC(CN)CC2)c2ccc(C#N)cc2)cc1F
305
Cc1ccc(-c2ncc(OC[C@H]3CCNC3)cc2-c2ccc(C#N)cc2)cc1
404

Now consider a different compound.
Tell me measured half-life for `COc1ccc(CN(CC(=O)N2CCC(N)CC2)c2ccc(C#N)cc2)cc1F` please.
385

###

The listing below reports Kd for compounds tested on UniProtKB O60341.
Numeric answer only, unit nM assumed.

Recorded Kd, per entry:
CC(=O)Nc1ccc(S(=O)(=O)Nc2ccc(C#N)cc2)cc1
9500
N#Cc1ccc(N(CC(=O)N2CCC(N)CC2)Cc2ccccc2)cc1
1100

With UniProtKB O60341 as the test system, provide measured Kd for this compound: `Cc1ccc(S(=O)(=O)N(CC(=O)N2CCC[C@H](N)C2)c2ccc(C#N)cc2)cc1`
10300

With UniProtKB O60341 as the test system, provide measured Kd for this compound: `COc1ccc(CN(CC(=O)N2CCC(CN)CC2)c2ccc(C#N)cc2)cc1F`
58

With UniProtKB O60341 as the test system, provide measured Kd for this compound: `Cc1ccc(-c2ncc(OC[C@H]3CCNC3)cc2-c2ccc(C#N)cc2)cc1`
9

###

assay: Apparent permeability across apical to basolateral side in human Caco2 cells; format: ADME, cell-based; conditions: Caco-2
# maps each entry to its Papp A→B

Recorded Papp A→B, per entry:
COc1ccc(CN(CC(=O)N2CCC3(CC2)CNC3)c2ccc(C#N)cc2)cc1F
0.09 ×10⁻⁶ cm/s
COc1ccc(CN(CC(=O)N2CCC(CN)CC2)c2ccc(C#N)cc2)cc1F
0.26 ×10⁻⁶ cm/s
Cc1ccc(-c2ncc(OC[C@H]3CCNC3)cc2-c2ccc(C#N)cc2)cc1
5.6 ×10⁻⁶ cm/s

Tell me measured Papp A→B for `COc1ccc(CN(CC(=O)N2CCC(N)CC2)c2ccc(C#N)cc2)cc1F` please.
0.44 ×10⁻⁶ cm/s

###

molecular target: Lysine-specific histone demethylase 1A (Homo sapiens, UniProt O60341); assay: Inhibition of N-terminal truncated human LSD1 (151 to 852 residues) expressed in Escherichia coli after 30 mins using histone H3(1-21)K4(Me1) biotin peptide as substrate by TR-FRET assay
measurement_label: IC50 (µM)
Numeric answer only, unit µM assumed.

Recorded IC50, per entry:
COc1cc(NS(=O)(=O)c2ccc3c(c2)CCN3C(C)=O)ccc1-n1nc(C)cc1C
1.6
Cc1ccc(S(=O)(=O)N(CC(=O)N2CCC(C)(N)CC2)c2ccc(C#N)cc2)cc1
5.2
Cc1ccc(CN(CC(=O)N2CCC(N)CC2)c2ccc(C#N)cc2)cc1
1.3
COc1ccc(CN(CC(=O)N2CCC(F)(CN)CC2)c2ccc(C#N)cc2)cc1F
0.99
Cc1ccc(S(=O)(=O)N(CC(=O)N2C[C@@H]3C[C@H]2CN3)c2ccc(C#N)cc2)cc1
13.1
Cc1ccc(S(=O)(=O)N(CC(=O)NC2CCNCC2)c2ccc(C#N)cc2)cc1
15.6
Cc1ccc(S(=O)(=O)N(CC(=O)N2CCC(N(C)C)CC2)c2ccc(C#N)cc2)cc1
12.6
Cc1ccc(S(=O)(=O)N(CC(=O)N[C@H]2CN3CCC2CC3)c2ccc(C#N)cc2)cc1
11.9

Now consider a different compound.
Tell me measured IC50 for `COc1ccc(CN(CC(=O)N2CCC(N)CC2)c2ccc(C#N)cc2)cc1F` please.
0.81
